- measuredOn: human SGLT1 (Homo sapiens (Human), UniProt P13866)
- Sequence (P13866 whole entry): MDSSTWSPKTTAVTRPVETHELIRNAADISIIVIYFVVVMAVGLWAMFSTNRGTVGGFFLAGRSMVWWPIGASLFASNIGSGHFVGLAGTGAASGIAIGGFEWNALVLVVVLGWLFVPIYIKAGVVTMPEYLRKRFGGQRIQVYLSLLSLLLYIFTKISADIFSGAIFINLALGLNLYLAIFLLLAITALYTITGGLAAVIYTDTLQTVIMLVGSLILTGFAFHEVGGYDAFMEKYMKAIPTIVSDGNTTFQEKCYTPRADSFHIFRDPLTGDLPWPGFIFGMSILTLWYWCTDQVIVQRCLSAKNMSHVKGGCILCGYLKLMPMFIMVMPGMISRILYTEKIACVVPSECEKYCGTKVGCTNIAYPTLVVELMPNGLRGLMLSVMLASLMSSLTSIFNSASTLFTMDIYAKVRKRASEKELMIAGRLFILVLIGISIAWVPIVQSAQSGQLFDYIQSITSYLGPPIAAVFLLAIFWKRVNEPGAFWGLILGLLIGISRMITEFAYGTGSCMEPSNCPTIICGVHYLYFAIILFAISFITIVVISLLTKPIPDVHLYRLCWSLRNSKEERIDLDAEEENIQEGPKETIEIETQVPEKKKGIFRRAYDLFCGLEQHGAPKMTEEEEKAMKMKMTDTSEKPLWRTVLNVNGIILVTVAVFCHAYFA
- assayNotes: SGLT1 inhibitory activity: 14C-AMG uptake into CHO-K1 cell line stably expressing human SGLT1
- Assay type: cell-based
- conditionParameters: 14C-AMG uptake, CHO-K1 cells stably expressing human SGLT1
Documented IC50 across a set of compounds
Write the answer as a number in nM, unit excluded.

compound: O=C1C[C@H](C(=O)Nc2cc(-c3cccc(COCC(F)(F)F)c3)n(-c3ccccc3F)n2)CN1 [Example 471]
valueObserved: 15
--
compound: O=C1C[C@H](C(=O)Nc2cc(-c3cccc(COCC(F)(F)F)c3)n(-c3ccccc3Cl)n2)CN1 [Example 474]
valueObserved: 7.3
--
compound: COCc1cccc(-n2nc(NC(=O)[C@@H]3CNC(=O)C3)cc2-c2cccc(COCC(F)(F)F)c2)c1 [Example 489]
valueObserved: 11
--
compound: CCC(C)(C)C(=O)c1cccc(-c2cc(NC(=O)[C@@H]3CNC(=O)C3)nn2-c2ccccc2)c1 [Example 470]
valueObserved: 7

Attention now turns to another entry.
Entry COc1cc(F)cc(-n2nc(NC(=O)[C@@H]3CNC(=O)C3)cc2-c2cccc(COCC(F)(F)F)c2)c1 [Example 527] needs its IC50 filled in; supply it.
8.5
